Target: CDK2 (human) (UniProt P24941)
Assay: KINOMEscan competition binding
Settings: compound 10.0 µM
Note to self: use t only for kinase still bound, per cent of control readings below 90%; a reading exactly at 90% still gets f.

>>> group_label("O=C1Nc2ccc(I)cc2/C1=C/c1cc(Br)c(O)c(Br)c1")
"f"
>>> group_label("OCCCNc1cc(-c2ccnc(Nc3cccc(Cl)c3)n2)ccn1")
"f"
>>> group_label("CC[C@@H]1C(=O)N(C)c2cnc(Nc3ccc(C(=O)NC4CCN(C)CC4)cc3OC)nc2N1C1CCCC1")
"f"
>>> group_label("Cc1cc([C@@H](C)Nc2ccccc2C(=O)O)c2nc(N3CCOCC3)cc(=O)n2c1")
"f"
>>> group_label("O=C(NC1CC1)c1cccc(-c2ccc3c(NC(=O)C4CC4)n[nH]c3c2)c1")
"t"
>>> group_label("Cc1ccc(C(=O)Nc2cccc(C(F)(F)F)c2)cc1Nc1cncc(C(N)=O)c1")
"f"
>>> group_label("C[C@@H](Oc1cc(-n2cnc3ccc(CN4CCN(C)CC4)cc32)sc1C(N)=O)c1ccccc1C(F)(F)F")
"t"
>>> group_label("COc1cc(C(=O)NC2CCN(C)CC2)ccc1Nc1ncc2c(n1)N(C1CCCC1)C(C)CC(=O)N2C (stereo not drawn)")
"f"

====

Target: EPHB2 (human) (UniProt P29323)
Sequence (P29323 whole entry, looked up): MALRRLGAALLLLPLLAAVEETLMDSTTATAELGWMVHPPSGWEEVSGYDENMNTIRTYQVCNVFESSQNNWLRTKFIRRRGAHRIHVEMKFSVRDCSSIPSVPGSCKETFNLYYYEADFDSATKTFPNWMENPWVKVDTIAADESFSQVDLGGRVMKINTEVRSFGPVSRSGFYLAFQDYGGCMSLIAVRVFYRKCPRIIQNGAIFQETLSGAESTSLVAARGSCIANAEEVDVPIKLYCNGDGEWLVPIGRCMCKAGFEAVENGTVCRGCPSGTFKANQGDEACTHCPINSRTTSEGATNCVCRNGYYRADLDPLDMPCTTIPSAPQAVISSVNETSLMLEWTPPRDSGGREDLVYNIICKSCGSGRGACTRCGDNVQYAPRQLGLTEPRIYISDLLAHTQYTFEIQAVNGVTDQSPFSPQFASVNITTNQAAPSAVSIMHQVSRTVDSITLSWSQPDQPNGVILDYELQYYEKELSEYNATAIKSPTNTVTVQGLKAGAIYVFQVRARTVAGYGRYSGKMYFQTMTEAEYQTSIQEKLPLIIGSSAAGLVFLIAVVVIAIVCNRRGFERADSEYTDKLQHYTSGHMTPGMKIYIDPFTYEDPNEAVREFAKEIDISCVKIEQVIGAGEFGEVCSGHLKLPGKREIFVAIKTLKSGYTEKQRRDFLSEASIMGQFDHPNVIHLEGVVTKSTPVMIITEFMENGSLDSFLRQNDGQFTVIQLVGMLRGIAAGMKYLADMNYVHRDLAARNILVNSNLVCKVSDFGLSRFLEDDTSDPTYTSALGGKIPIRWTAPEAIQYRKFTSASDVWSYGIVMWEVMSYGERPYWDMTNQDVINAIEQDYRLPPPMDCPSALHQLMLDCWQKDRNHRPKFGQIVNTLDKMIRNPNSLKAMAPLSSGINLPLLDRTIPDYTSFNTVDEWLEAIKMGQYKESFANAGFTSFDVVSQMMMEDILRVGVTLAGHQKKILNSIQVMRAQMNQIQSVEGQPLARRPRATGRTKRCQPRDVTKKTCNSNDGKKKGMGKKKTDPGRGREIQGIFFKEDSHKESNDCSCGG
Experiment: KINOMEscan competition binding
Conditions: compound 10.0 µM
Quantity: kinase still bound, per cent of control (%)

>>> recorded_measurement("Cn1c(=O)n(-c2ccc(C(C)(C)C#N)cc2)c2c3cc(-c4cnc5ccccc5c4)ccc3ncc21")
100
>>> recorded_measurement("O=C(O)c1ccc(Nc2ncc3c(n2)-c2ccc(Cl)cc2C(c2c(F)cccc2F)=NC3)cc1")
50
>>> recorded_measurement("O=C1Nc2ccc(I)cc2/C1=C/c1cc(Br)c(O)c(Br)c1")
100
>>> recorded_measurement("COc1cc(N2CCN(C)CC2)ccc1Nc1nc(N)c(C(=O)c2c(Cl)cccc2Cl)s1")
100
>>> recorded_measurement("C=CC(=O)Nc1cccc(Oc2nc(Nc3ccc(N4CCN(C)CC4)cc3OC)ncc2Cl)c1")
100
>>> recorded_measurement("OCCCNc1cc(-c2ccnc(Nc3cccc(Cl)c3)n2)ccn1")
100

====

Target: VRK2 (human)
Test: KINOMEscan competition binding
Conditions: compound 10.0 µM
List of kinase still bound, per cent of control values.
Quantity: kinase still bound, per cent of control

>>> recorded_measurement("N#Cc1c(NC(=O)c2cccc3ccccc23)sc2c1CCCC2")
"100%"
>>> recorded_measurement("CCC(=O)N1CCN(c2ccc(-n3c(=O)ccc4cnc5ccc(-c6cnc7ccccc7c6)cc5c43)cc2C(F)(F)F)CC1")
"100%"
>>> recorded_measurement("C[C@@H](Oc1cc(-n2cnc3ccc(CN4CCN(C)CC4)cc32)sc1C(N)=O)c1ccccc1C(F)(F)F")
"100%"
>>> recorded_measurement("C=CC(=O)Nc1cc(NC(=O)c2ccc(C)c(NC(=O)c3ccno3)c2)cc(C(F)(F)F)c1")
"100%"
>>> recorded_measurement("O=C(O)c1ccc(Nc2ncc3c(n2)-c2ccc(Cl)cc2C(c2c(F)cccc2F)=NC3)cc1")
"100%"
>>> recorded_measurement("CN(C)C/C=C/C(=O)Nc1cccc(Nc2ncc3c(n2)N(C)c2ccccc2C(=O)N3C)c1")
"73%"
>>> recorded_measurement("O=C1Nc2ccc(I)cc2/C1=C/c1cc(Br)c(O)c(Br)c1")
"82%"
>>> recorded_measurement("Nc1ccc(-c2ccc3ncc4ccc(=O)n(-c5cccc(C(F)(F)F)c5)c4c3c2)cn1")
"100%"
>>> recorded_measurement("CCOc1cc2ncc(C#N)c(Nc3ccc(OCc4ccccn4)c(Cl)c3)c2cc1NC(=O)/C=C/CN(C)C")
"67%"

====

Target: STK4 (human) (UniProt Q13043)
Sequence (Q13043 whole entry, looked up): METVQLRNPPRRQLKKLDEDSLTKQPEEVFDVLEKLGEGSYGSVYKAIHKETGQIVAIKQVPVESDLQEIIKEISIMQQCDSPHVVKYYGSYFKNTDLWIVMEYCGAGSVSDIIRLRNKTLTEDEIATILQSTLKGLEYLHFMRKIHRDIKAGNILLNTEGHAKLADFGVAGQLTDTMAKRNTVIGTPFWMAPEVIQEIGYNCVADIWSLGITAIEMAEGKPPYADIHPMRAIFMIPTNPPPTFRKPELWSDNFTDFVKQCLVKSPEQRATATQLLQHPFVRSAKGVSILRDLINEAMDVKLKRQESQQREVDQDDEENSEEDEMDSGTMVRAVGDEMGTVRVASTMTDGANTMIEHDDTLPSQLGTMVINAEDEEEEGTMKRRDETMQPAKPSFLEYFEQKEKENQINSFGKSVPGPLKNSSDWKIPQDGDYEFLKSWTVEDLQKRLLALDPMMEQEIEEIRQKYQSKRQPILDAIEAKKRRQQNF
Test: KINOMEscan competition binding
Conditions: compound 10.0 µM
Quantity: kinase still bound, per cent of control (%)

>>> recorded_measurement("OCCCNc1cc(-c2ccnc(Nc3cccc(Cl)c3)n2)ccn1")
100
>>> recorded_measurement("CCN1CCN(Cc2ccc(Nc3ncc4c(n3)N(C)c3ccccc3C(=O)N4C)cc2C(F)(F)F)CC1")
72
>>> recorded_measurement("CCOc1cc2ncc(C#N)c(Nc3ccc(OCc4ccccn4)c(Cl)c3)c2cc1NC(=O)/C=C/CN(C)C")
17
>>> recorded_measurement("O=C1Nc2ccc(I)cc2/C1=C/c1cc(Br)c(O)c(Br)c1")
52
>>> recorded_measurement("CC[C@@H]1C(=O)N(C)c2cnc(Nc3ccc(C(=O)NC4CCN(C)CC4)cc3OC)nc2N1C1CCCC1")
100
>>> recorded_measurement("C=CC(=O)Nc1cc(NC(=O)c2ccc(C)c(NC(=O)c3ccno3)c2)cc(C(F)(F)F)c1")
99

====

Examples of compounds with documented kinase still bound, per cent of control follow.
Biological target: ULK3 (human)
Assay: KINOMEscan competition binding
Details: compound 10.0 µM
Quantity: kinase still bound, per cent of control (%)

>>> recorded_measurement("C=CC(=O)Nc1cccc(Oc2nc(Nc3ccc(N4CCN(C)CC4)cc3OC)ncc2Cl)c1")
12
>>> recorded_measurement("O=C(NOC[C@H](O)CO)c1ccc(F)c(F)c1Nc1ccc(I)cc1F")
89
>>> recorded_measurement("O=C(NC1CC1)c1cccc(-c2ccc3c(NC(=O)C4CC4)n[nH]c3c2)c1")
13
>>> recorded_measurement("CCOc1cc2ncc(C#N)c(Nc3ccc(OCc4ccccn4)c(Cl)c3)c2cc1NC(=O)/C=C/CN(C)C")
100
>>> recorded_measurement("N#Cc1c(NC(=O)c2cccc3ccccc23)sc2c1CCCC2")
94

====

System: PIK3CA (human), P42336 [E545A]
Sequence (P42336 whole entry E545A, looked up): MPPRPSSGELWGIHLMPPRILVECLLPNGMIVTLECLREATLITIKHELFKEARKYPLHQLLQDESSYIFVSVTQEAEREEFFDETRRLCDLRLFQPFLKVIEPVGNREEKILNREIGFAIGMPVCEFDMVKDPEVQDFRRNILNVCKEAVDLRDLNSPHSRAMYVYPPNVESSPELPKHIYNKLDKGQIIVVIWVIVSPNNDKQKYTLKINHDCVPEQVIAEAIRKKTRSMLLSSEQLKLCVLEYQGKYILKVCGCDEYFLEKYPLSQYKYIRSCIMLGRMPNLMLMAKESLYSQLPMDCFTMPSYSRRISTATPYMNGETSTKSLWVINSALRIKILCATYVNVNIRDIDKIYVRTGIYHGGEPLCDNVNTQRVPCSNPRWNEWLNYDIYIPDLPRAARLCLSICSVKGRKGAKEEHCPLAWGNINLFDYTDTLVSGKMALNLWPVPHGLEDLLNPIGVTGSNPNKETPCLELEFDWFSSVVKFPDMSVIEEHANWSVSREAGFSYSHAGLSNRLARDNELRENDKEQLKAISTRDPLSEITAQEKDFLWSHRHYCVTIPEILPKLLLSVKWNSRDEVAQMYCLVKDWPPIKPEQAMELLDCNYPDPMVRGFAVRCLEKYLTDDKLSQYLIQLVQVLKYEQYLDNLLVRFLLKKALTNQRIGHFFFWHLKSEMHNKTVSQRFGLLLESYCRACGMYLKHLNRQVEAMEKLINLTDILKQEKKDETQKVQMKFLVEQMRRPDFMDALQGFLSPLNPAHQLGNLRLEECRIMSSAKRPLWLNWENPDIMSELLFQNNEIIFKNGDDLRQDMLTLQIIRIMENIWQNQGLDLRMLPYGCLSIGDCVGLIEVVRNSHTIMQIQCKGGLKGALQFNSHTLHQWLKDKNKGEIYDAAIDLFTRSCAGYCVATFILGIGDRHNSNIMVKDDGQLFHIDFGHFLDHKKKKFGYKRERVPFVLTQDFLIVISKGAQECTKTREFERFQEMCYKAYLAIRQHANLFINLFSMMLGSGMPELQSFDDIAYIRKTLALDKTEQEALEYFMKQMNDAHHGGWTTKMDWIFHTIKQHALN
Assay: KINOMEscan competition binding
Conditions: compound 10.0 µM
Checkbox rule: kinase still bound, per cent of control lower than 30% = true; kinase still bound, per cent of control not lower than 30% = false.

>>> group_label("CNC(=O)Nc1ccc(-c2nc(N3CC4CCC(C3)O4)c3cnn(C4CCC5(CC4)OCCO5)c3n2)cc1")
"true"
>>> group_label("Cc1ccc2nc(NCCN)c3ncc(C)n3c2c1")
"false"
>>> group_label("COc1cc2ncn(-c3cc(OCc4ccccc4C(F)(F)F)c(C(N)=O)s3)c2cc1OC")
"false"
>>> group_label("O=c1cc(N2CCOCC2)oc2c(-c3cccc4c3sc3ccccc34)cccc12")
"true"
>>> group_label("N#Cc1c(NC(=O)c2cccc3ccccc23)sc2c1CCCC2")
"false"
>>> group_label("COc1cc2ncnc(Nc3cccc(Cl)c3)c2cc1OC")
"false"
>>> group_label("CC1=C(C(=O)Nc2cc3cn[nH]c3cc2F)C(c2ccc(C(F)(F)F)cc2)CC(=O)N1 (stereo not given)")
"false"
>>> group_label("CCC(=O)N1CCN(c2ccc(-n3c(=O)ccc4cnc5ccc(-c6cnc7ccccc7c6)cc5c43)cc2C(F)(F)F)CC1")
"true"
>>> group_label("CCN(CCO)CCCOc1ccc2c(Nc3cc(CC(=O)Nc4cccc(F)c4)[nH]n3)ncnc2c1")
"false"
>>> group_label("OCCCNc1cc(-c2ccnc(Nc3cccc(Cl)c3)n2)ccn1")
"false"

====

Target: STK3 (human) (UniProt Q13188)
Sequence (Q13188 whole entry, looked up): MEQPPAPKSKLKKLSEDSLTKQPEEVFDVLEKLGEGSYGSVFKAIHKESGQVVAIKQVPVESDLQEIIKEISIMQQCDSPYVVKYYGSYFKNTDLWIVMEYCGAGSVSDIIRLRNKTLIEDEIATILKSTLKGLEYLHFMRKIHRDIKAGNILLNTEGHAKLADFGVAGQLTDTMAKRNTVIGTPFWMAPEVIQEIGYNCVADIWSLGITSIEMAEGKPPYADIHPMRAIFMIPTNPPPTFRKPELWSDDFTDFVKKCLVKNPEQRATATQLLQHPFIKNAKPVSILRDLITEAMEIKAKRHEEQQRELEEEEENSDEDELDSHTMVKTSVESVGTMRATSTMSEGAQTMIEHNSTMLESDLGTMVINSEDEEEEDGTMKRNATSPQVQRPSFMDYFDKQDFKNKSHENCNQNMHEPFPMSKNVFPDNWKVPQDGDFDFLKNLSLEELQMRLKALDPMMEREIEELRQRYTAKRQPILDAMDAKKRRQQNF
Experiment: KINOMEscan competition binding
Conditions: compound 10.0 µM
# reported kinase still bound, per cent of control; entries follow
Quantity: kinase still bound, per cent of control (%)

>>> recorded_measurement("CCN1CCN(Cc2ccc(Nc3ncc4c(n3)N(C)c3ccccc3C(=O)N4C)cc2C(F)(F)F)CC1")
8.1
>>> recorded_measurement("COc1cc(C(=O)NC2CCN(C)CC2)ccc1Nc1ncc2c(n1)N(C1CCCC1)CCC(=O)N2C(C)C")
100
>>> recorded_measurement("Cc1ccc(NC(=O)c2cccc(C(C)(C)C#N)c2)cc1Nc1ccc2ncn(C)c(=O)c2c1")
100
>>> recorded_measurement("O=C(NC1CC1)c1cccc(-c2ccc3c(NC(=O)C4CC4)n[nH]c3c2)c1")
100
>>> recorded_measurement("Nc1ccc(-c2ccc3ncc4ccc(=O)n(-c5cccc(C(F)(F)F)c5)c4c3c2)cn1")
63
>>> recorded_measurement("Cn1c(=O)n(-c2ccc(C(C)(C)C#N)cc2)c2c3cc(-c4cnc5ccccc5c4)ccc3ncc21")
100
>>> recorded_measurement("Cc1cc([C@@H](C)Nc2ccccc2C(=O)O)c2nc(N3CCOCC3)cc(=O)n2c1")
66
>>> recorded_measurement("Cc1ccc(C(=O)Nc2cccc(C(F)(F)F)c2)cc1Nc1cncc(C(N)=O)c1")
100
>>> recorded_measurement("C=CC(=O)Nc1cccc(Nc2nc(N[C@H]3CC[C@H](N(C)C)CC3)nc3c2ncn3C(C)C)c1")
57

====

Target: UniProtKB P14616
Sequence (P14616 whole entry, looked up): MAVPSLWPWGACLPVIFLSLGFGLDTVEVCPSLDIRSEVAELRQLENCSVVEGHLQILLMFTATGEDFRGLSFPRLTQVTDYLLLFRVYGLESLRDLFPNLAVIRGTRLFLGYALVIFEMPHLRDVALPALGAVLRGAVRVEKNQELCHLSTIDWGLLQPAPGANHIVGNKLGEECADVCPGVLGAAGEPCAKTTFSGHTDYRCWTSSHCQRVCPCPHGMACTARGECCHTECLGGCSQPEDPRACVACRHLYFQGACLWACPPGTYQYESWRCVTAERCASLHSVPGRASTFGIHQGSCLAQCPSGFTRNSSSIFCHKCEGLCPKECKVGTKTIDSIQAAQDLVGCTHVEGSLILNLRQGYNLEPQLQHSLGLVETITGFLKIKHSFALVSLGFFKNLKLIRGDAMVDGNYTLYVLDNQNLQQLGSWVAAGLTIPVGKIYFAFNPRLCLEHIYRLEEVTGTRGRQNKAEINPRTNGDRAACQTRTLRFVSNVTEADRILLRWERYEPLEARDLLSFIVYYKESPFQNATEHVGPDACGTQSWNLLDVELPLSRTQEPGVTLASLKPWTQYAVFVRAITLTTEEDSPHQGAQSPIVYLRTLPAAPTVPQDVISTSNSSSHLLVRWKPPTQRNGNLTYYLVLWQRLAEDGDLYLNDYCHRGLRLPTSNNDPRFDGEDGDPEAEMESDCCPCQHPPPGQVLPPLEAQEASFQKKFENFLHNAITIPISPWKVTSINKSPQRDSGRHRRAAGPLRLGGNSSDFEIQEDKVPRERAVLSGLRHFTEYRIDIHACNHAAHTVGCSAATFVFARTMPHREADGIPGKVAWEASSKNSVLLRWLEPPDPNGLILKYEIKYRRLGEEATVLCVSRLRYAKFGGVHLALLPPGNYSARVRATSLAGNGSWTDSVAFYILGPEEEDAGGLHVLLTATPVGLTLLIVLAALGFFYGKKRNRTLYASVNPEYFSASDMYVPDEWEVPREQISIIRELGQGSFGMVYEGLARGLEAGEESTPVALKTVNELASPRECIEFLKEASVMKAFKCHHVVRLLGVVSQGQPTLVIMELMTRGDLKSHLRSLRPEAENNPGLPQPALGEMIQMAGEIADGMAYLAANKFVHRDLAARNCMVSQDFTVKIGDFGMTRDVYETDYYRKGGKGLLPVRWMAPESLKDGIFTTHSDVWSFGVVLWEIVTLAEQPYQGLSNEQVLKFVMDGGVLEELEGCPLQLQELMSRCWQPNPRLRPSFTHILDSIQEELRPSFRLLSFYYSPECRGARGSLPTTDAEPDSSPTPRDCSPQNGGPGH
Test: KINOMEscan competition binding
Details: compound 10.0 µM
Quantity: kinase still bound, per cent of control (%)

>>> recorded_measurement("C=CC(=O)Nc1cccc(Nc2nc(N[C@H]3CC[C@H](N(C)C)CC3)nc3c2ncn3C(C)C)c1")
64
>>> recorded_measurement("CCCS(=O)(=O)Nc1ccc(F)c(C(=O)c2c[nH]c3ncc(-c4ccc(Cl)cc4)cc23)c1F")
73
>>> recorded_measurement("CCN1CCN(Cc2ccc(Nc3ncc4c(n3)N(C)c3ccccc3C(=O)N4C)cc2C(F)(F)F)CC1")
100
>>> recorded_measurement("COc1cc(N2CCN(C)CC2)ccc1Nc1nc(N)c(C(=O)c2c(Cl)cccc2Cl)s1")
100
>>> recorded_measurement("C[C@@H](Oc1cc(-n2cnc3ccc(CN4CCN(C)CC4)cc32)sc1C(N)=O)c1ccccc1C(F)(F)F")
100
>>> recorded_measurement("CC[C@@H]1C(=O)N(C)c2cnc(Nc3ccc(C(=O)NC4CCN(C)CC4)cc3OC)nc2N1C1CCCC1")
100
>>> recorded_measurement("CN(C)C/C=C/C(=O)Nc1cccc(Nc2ncc3c(n2)N(C)c2ccccc2C(=O)N3C)c1")
100
>>> recorded_measurement("O=C(NOC[C@H](O)CO)c1ccc(F)c(F)c1Nc1ccc(I)cc1F")
81
>>> recorded_measurement("Nc1ccc(-c2ccc3ncc4ccc(=O)n(-c5cccc(C(F)(F)F)c5)c4c3c2)cn1")
100
>>> recorded_measurement("N#Cc1c(NC(=O)c2cccc3ccccc23)sc2c1CCCC2")
100
>>> recorded_measurement("COc1cc(C(=O)NC2CCN(C)CC2)ccc1Nc1ncc2c(n1)N(C1CCCC1)C(C)CC(=O)N2C (stereo unspecified)")
26
>>> recorded_measurement("OCCCNc1cc(-c2ccnc(Nc3cccc(Cl)c3)n2)ccn1")
100
>>> recorded_measurement("Cc1ccc(C(=O)Nc2cccc(C(F)(F)F)c2)cc1Nc1cncc(C(N)=O)c1")
100
>>> recorded_measurement("C=CC(=O)Nc1cccc(Oc2nc(Nc3ccc(N4CCN(C)CC4)cc3OC)ncc2Cl)c1")
13
>>> recorded_measurement("Cc1cc([C@@H](C)Nc2ccccc2C(=O)O)c2nc(N3CCOCC3)cc(=O)n2c1")
100
>>> recorded_measurement("Cc1ccc2nc(NCCN)c3ncc(C)n3c2c1")
100
